Assay: folding stability dG unfold (combined trypsin and chymotrypsin); higher = more stable
Metric Name: folding stability dG unfold (kcal/mol)

[[record]]
sequence_record = "SAGGSAGGGMTPEEARALAEAAGYEDVEVTVLSRDPENNVTVVEVTARAPGGGGAASVGTYTAPSAGGSAGG [r6_699_JUSTAS]"
metric_name = "folding stability dG unfold"
readout_value = -0.396

[[record]]
sequence_record = "SAGGMEEIRELLREGKIDEVVERLKELGYEDVKITPIPDKPVVKIEVVRYDPVTGKPTKFTLTIPLEPSAGG [r13_359_TrMRF]"
metric_name = "folding stability dG unfold"
readout_value = 5.67

[[record]]
sequence_record = "SAGGSAGGSAGGKVLKIKFSSIEEILEYIKNNDSVTIVVLDENDNPIGTITVEVKPGSLSAGGSAGGSAGGS [r10_193_TrMRF]"
metric_name = "folding stability dG unfold"
readout_value = 2.5

[[record]]
sequence_record = "SAGGDVVRVRVRLRRFEIVGDRPVYRPVDIDILAEADGDPEAARRRAEREARRLAEEYGAEIEDIELFPSAG [r5_497_TrMRF]"
metric_name = "folding stability dG unfold"
readout_value = 2.4


###

Each entry below lists one item and its recorded folding stability dG unfold value.
Assay: folding stability dG unfold from trypsin proteolysis; higher = more stable
Metric Name: folding stability dG unfold (kcal/mol)

[[record]]
sequence_record = "SAGGSAGGSGSLEKVFTGENKIITIKYLPDGKVIITLHDPSTPKPIAVIEAKPSEIEEILKKESAGGSAGGS [r20_129_TrMRF]"
uom = "kcal/mol"
readout_value = 1.24

[[record]]
sequence_record = "SAGGSAGGSAGGSKTLTPEEIKKLLDEAKKKGYKTVKITVKNKNGKTYTFTIKIPKEDLSAGGSAGGSAGGS [r4_342_TrROS_Hall]"
uom = "kcal/mol"
readout_value = 2.76

[[record]]
sequence_record = "SAGGSAGGKKKVIEITVKITLFNENGEEVATFEAKITIIEDKETKEYYAVITFKDGSTLVIKLPSAGGSAGG [r6_923_TrROS_Hall]"
uom = "kcal/mol"
readout_value = 3.69

[[record]]
sequence_record = "SAGGSAGGSFEILEVHPVKDGWLMIVVRTPGKMKVITIPPDDLDEIPGLDDIAIFPVKDGEPISAGGSAGGS [r12_343_TrROS]"
uom = "kcal/mol"
readout_value = 1.28

[[record]]
sequence_record = "SAGMDLKIEEEEDPLSGSRLFRIELRDPDGKYNLTVVVLKENGKIKAVLVLRENTGEPLTLPELVELLESAG [r5_872_TrMRF]"
uom = "kcal/mol"
readout_value = 2.83

[[record]]
sequence_record = "SAGMILTIRPEDGSEEIIPVPKEDIEKLIEDLEKKGIKVLSMTTSPDGVSTIPTQYPDGKKMTITVHLDSAG [r5_645_JUSTAS]"
uom = "kcal/mol"
readout_value = 0.707

[[record]]
sequence_record = "SAGGKMVKIKIVVEVKVEEEVKEGEKVETFKVELTIELPEEEVEKLKAELEKLFPDVKIVEIEKVEPSAGGS [r8_490_TrROS_Hall]"
uom = "kcal/mol"
readout_value = 3.39


###

Each entry below lists one item and its recorded folding stability dG unfold value.
Experiment: folding stability dG unfold from trypsin proteolysis; higher = more stable
Metric Name: folding stability dG unfold (kcal/mol)

[[record]]
sequence_record = "SAGGSAGGSAGGMYFIRIKPPNGEELVILIPPGDEIKIKDADGRPWKITDVYPMPPEQFSAGGSAGGSAGGS [r10_422_TrROS]"
metric_name = "folding stability dG unfold"
readout_value = -0.17

[[record]]
sequence_record = "SAGGMLRIRIDGREIEIGMTVEEILAAIEKELGREISPELREALRKAKTPEEIVEALRKLGLKIEIESAGGS [r16_601_TrROS_Hall]"
metric_name = "folding stability dG unfold"
readout_value = 3.66

[[record]]
sequence_record = "SAGGSAGGSAEVFIVKFSDPAKLKAFMEKLGLSYEKGDNPKITNPEEFLKNLPLVKNVVVTKKSAGGSAGGS [r12_571_JUSTAS]"
metric_name = "folding stability dG unfold"
readout_value = 0.286

[[record]]
sequence_record = "KPKIKITITFNKETGKITITAVNKDNNVVVKTEFELKDGKLTMKIEVKNKKTNKTYTIEIEIKLLKPGEKLS [r1_404_TrROS_Hall]"
metric_name = "folding stability dG unfold"
readout_value = 2.58

[[record]]
sequence_record = "SAGGSAGGSAMKIELTVPPGEEAELEARAKALAEAEGVEVVSVSKSPEGTYTMTVLNTVPPESAGGSAGGSA [r18_351_JUSTAS]"
metric_name = "folding stability dG unfold"
readout_value = 0.532

[[record]]
sequence_record = "SAGGSAGGKPKIIEEKELEFTRKDGKKVKIKLVKNEDGKVFAFNKDTGKVITLPLDELKALLKSSAGGSAGG [r6_579_TrROS_Hall]"
metric_name = "folding stability dG unfold"
readout_value = 1.87

[[record]]
sequence_record = "VDLGIRTESVGGRRYRVLIRRPGTGEPRVLEVEGTLEEARERALREIREEYPDLPVRSINPVPVPAPPWLES [r1_80_TrMRF]"
metric_name = "folding stability dG unfold"
readout_value = -0.153

[[record]]
sequence_record = "SAGGSAGGGDLVVYRLEVRRFEPGTGRLVETRSRTVVVPKEDLPELLERIPPGYEVLRIEAFPESAGGSAGG [r6_776_TrMRF]"
metric_name = "folding stability dG unfold"
readout_value = 0.636

[[record]]
sequence_record = "SAGGSAMPLEELKKVTITLSFYNENGELVAEMTLEYDEETDVFTMTVKVRYNGKTYTVEMEFKLLPSAGGSA [r15_278_TrROS_Hall]"
metric_name = "folding stability dG unfold"
readout_value = 4.5

[[record]]
sequence_record = "SAGAVELPPGVAAVERDPETGVVTATYPDGTVTRYTVSTEWDPTVGRTRPRVTVEVWSPDSRISTRDLPSAG [r5_109_JUSTAS]"
metric_name = "folding stability dG unfold"
readout_value = 0.119

[[record]]
sequence_record = "SMLVLRLPDNRLAVLEYDPETKRLRVLVVDPESGRLTVAEIHPETGEITVDEYTLLPNGEPLPHRFELPLSA [r9_1073_TrMRF]"
metric_name = "folding stability dG unfold"
readout_value = 2.84

[[record]]
sequence_record = "SAGGSAGGSKLGVFEVGGKRYAVKVTDKNGKELTLAIPPELLKKLPKNLKVEVKEVKPGEPIPSAGGSAGGS [r12_419_TrMRF]"
metric_name = "folding stability dG unfold"
readout_value = 0.218

[[record]]
sequence_record = "SAGGSAGGPNMYMFKLEIKWYDPGKGKPVATRPITVMVPEDDLPEILKNLPPGFEIKNITIFPMSAGGSAGG [r6_777_TrROS]"
metric_name = "folding stability dG unfold"
readout_value = 2.16

[[record]]
sequence_record = "SAGGPRVFRLTYLDPETGEPRELRFSLPVPPAPDFISVYVNVPPELARRIAELLRELYPDKPVLVHRSAGGS [r8_437_TrMRF]"
metric_name = "folding stability dG unfold"
readout_value = 2

[[record]]
sequence_record = "SAGGSAGGSLRLRVTFTVTVTFLDGNRLRPAKVEITVEIELEPIPPELLRPRPLPGDKLEYDLSAGGSAGGS [r12_1031_TrMRF]"
metric_name = "folding stability dG unfold"
readout_value = 2.72

[[record]]
sequence_record = "SMIDIEISTDPNNPNVITVTAKYPDPEKAKEYLEKKLKEEYDVISISYEYEPENPIITFTFTYASPEKPQSA [r9_1120_JUSTAS]"
metric_name = "folding stability dG unfold"
readout_value = 2.37

[[record]]
sequence_record = "WLKFPFPIYNPGFGRPAKFEIELWPDGQLQVTWNGQPILSIPIRIVPPPEVEVDPEYDPNGKEKPKWKYPGS [r1_496_TrROS]"
metric_name = "folding stability dG unfold"
readout_value = 0.438

[[record]]
sequence_record = "SAGSSSSLPNVLVVTLYLPDAPLPIVLPVDTPEDVELAKERVKEIEKELEELGLPVNVEFKYYPPGFPVSAG [r5_823_TrMRF]"
metric_name = "folding stability dG unfold"
readout_value = 0.497

[[record]]
sequence_record = "SAGGSEEVEEEPPVVVTVRLTIELTLADGSKVRVEVELVRTADGRLLLKIRVVNEDTGEVYEFTFPSAGGSA [r2_484_TrROS_Hall]"
metric_name = "folding stability dG unfold"
readout_value = 3.31

[[record]]
sequence_record = "SGMTIKILEVDFNPLGEEDEKATITLKAEIGGEEVELKIEVYRRPDGSAIAKITLILPGSGEPFEITADISA [r9_241_TrMRF]"
metric_name = "folding stability dG unfold"
readout_value = 2.61

[[record]]
sequence_record = "SGNSLNEKGESYPITVKAPDPNVTPEQVKAALEKAGAKVLEIKRPPKGSTLTVSVEITDPEKVKEAFEKLSA [r9_1154_JUSTAS]"
metric_name = "folding stability dG unfold"
readout_value = -1.05

[[record]]
sequence_record = "SAGGSAGGSAGSIKEALKKLKPGDTVEIEITLKDGSKIKIRVKVIRDKKTKKYKVKIEIESAGGSAGGSAGG [r11_343_TrROS_Hall]"
metric_name = "folding stability dG unfold"
readout_value = 4.16

[[record]]
sequence_record = "SAMKTYTLPNATITVETLPGDNTIVVTVTDPESGKTTTTTVSLDDPSLTIENIIARIEEQIKAGKPVSLSAG [r14_157_JUSTAS]"
metric_name = "folding stability dG unfold"
readout_value = 2.33

[[record]]
sequence_record = "SAGGSAGGSEKPPVKTITLVLKVDDAEEAAKALAEELGVEITRIEVTRDENGKVYVRITIRLPSAGGSAGGS [r12_359_TrROS_Hall]"
metric_name = "folding stability dG unfold"
readout_value = 3.6

[[record]]
sequence_record = "SAGGSAGGSAGGGESAAPVVATTVSEEVFEEPGGTVIRRYTVTTPAATTTLSTEVLPPLLSAGGSAGGSAGG [r7_43_JUSTAS]"
metric_name = "folding stability dG unfold"
readout_value = -0.25

[[record]]
sequence_record = "SAGGSAGGSKIEITVKTKEELLEAIRKLAEEKGYEIVSIKIEKLPDGTYKVTIEIRKNDPLLKSAGGSAGGS [r12_647_TrROS_Hall]"
metric_name = "folding stability dG unfold"
readout_value = 1.35

[[record]]
sequence_record = "SAGGSKKVDIKPGKVKKVEVKTLPNGKKLLVLYFPLEDGKEKVVVISSDFKTPEEALEAAYKQLGKSAGGSA [r2_347_TrMRF]"
metric_name = "folding stability dG unfold"
readout_value = 1.02

